TEST_PROTOCOL: qHTS of TDP-43 Inhibitors; also: nearly all actives have a fitted effect of over 50% in size
CONDITION_PARAMETERS: TDP-43 expressing yeast growth rescue, BacTiter-Glo, 24 h; series mostly up to 46.1 µM
Out of some 410,000 compounds screened, about 7,200 (1.8%) were called active. Roughly 7% stayed inconclusive and do not appear here. Calls follow the shape of the dose curve; as a rule, active = well fitted activation curve with a large enough effect; inconclusive = small, poorly fitted or top-dose-only effect, or another doubt; inactive = no such curve, though single readings can be large or run the other way. The list comes from a sample in which actives are over-represented; it also holds close analogues and randomly drawn compounds.
Outcome codes: active, inactive

{"columns": ["COMPOUND", "ASSIGNED_CATEGORY"],
 "data": [
  ["Cc1nn(C)c2c1c(C(F)(F)F)cc(=O)n2C(C)C(=O)NCc1ccc(Cl)cc1 (configuration not stated)", "inactive"],
  ["CC(C)NC(=O)c1ccc(Sc2ccccc2)c([N+](=O)[O-])c1", "inactive"],
  ["COc1ccccc1N1CCN(CCCCOc2ccc(F)cc2)CC1", "inactive"],
  ["Cc1cc(C)cc(Nc2ncnc3onc(-c4ccc(F)cc4)c23)c1", "inactive"],
  ["COc1ccccc1N1CCN(c2ncnc3sc(C)c(-c4ccccc4)c23)CC1", "active"],
  ["O=C(c1ccc2c(c1)N(Cc1ccccc1F)C(=O)c1ccccc1S2(=O)=O)N1CCOCC1", "inactive"],
  ["CCOC(=O)c1cc(C)sc1NC(=O)C1CCC1", "inactive"],
  ["CC(C)Sc1oc(-c2cccs2)nc1S(=O)(=O)c1ccc(Cl)cc1", "inactive"],
  ["CC(NC(=O)COc1ccccc1)C(=O)NC1=NCCS1 (configuration not stated)", "inactive"],
  ["COc1ccccc1N1CCN(c2ccc([N+](=O)[O-])nc2)CC1", "inactive"],
  ["CN(Cc1ccccc1)c1ccc(-c2nc(-c3ccccc3)no2)cc1[N+](=O)[O-]", "inactive"],
  ["COc1ccc(OC)c(CCNC(=O)CCCn2c(=O)c3cccn3c3cccnc32)c1", "inactive"],
  ["Cc1c(Cl)cccc1NC(=O)C(=O)NCCc1csc2nc(-c3ccccc3F)nn12", "inactive"],
  ["Cc1nc(NC(=O)C2CCCCC2)sc1C", "active"],
  ["COc1ccccc1N1CCN(c2ncnc3onc(-c4cccc(Cl)c4)c23)CC1", "inactive"],
  ["COC(=O)c1c(NC(=O)C(C)Oc2ccc(Cl)c(C)c2)sc(C)c1C (configuration not stated)", "inactive"],
  ["CCn1c(SCC(=O)Nc2ccc3c(c2)OCCO3)nc2c(c1=O)SC(C)C2 (configuration not stated)", "inactive"],
  ["O=C(Nc1cccc2ccccc12)NC1CC1", "inactive"],
  ["COc1ccccc1N1CCN(c2ncnc3onc(-c4ccc(F)cc4)c23)CC1", "active"],
  ["O=C(Nc1ccc(OC(F)(F)F)cc1)C1CCCN(S(=O)(=O)c2ccc(Br)s2)C1 (configuration not stated)", "inactive"],
  ["CCn1c(SCC(=O)Nc2ccccc2F)nc2c(c1=O)SC(C)C2 (configuration not stated)", "active"],
  ["COC(=O)c1cc(NC(=O)CCS(=O)(=O)c2cc(Br)cc3c2N(C(=O)C2CC2)CC3)cc(C(=O)OC)c1", "inactive"]
]}
